The origin of these recorded values is patent US10646494B2.

Examples of molecules with documented EC50 follow.
Tested on: HCV replicon 1A
Experiment Description: Cell-based HCV replicon assay (Replicon Assay A), replicon 1A
Parameters: species or system Hepatitis C virus (HCV)
Experimental Context: Hepatitis C virus, 72 h, replicon RNA by real time PCR, cells harvested on day 3
Record the value in nM, omitting the unit from your answer.

Would you please look over these solved cases?
COC(=O)N[C@H](C(=O)N1CCC[C@H]1c1ncc(-c2cc(F)c3c(c2)OC(c2nc4ccccc4n2C)n2c-3cc3cc(-c4cnc([C@@H]5CCCN5C(=O)[C@@H](NC(=O)OC)C(C)C)[nH]4)ccc32)[nH]1)C(C)C (mixture of isomers) [Compound 11] :: 0.0081
COC(=O)N[C@H](C(=O)N1CCC[C@H]1c1ncc(-c2cc(F)c3c(c2)OC(c2cc(C(C)C)no2)n2c-3cc3cc(-c4cnc([C@@H]5CCCN5C(=O)[C@@H](NC(=O)OC)C(C)C)[nH]4)ccc32)[nH]1)C(C)C (mixture of isomers) [Compound 6] :: 0.0017

Supply measured EC50 of COC(=O)N[C@H](C(=O)N1CCC[C@H]1c1ncc(-c2cc(F)c3c(c2)OC(c2nc(C)co2)n2c-3cc3cc(-c4cnc([C@@H]5CCCN5C(=O)[C@@H](NC(=O)OC)C(C)C)[nH]4)ccc32)[nH]1)C(C)C (single isomer, unassigned) [Compound 23] in your reply. 0.0031

Give a short answer stating reported EC50 for COC(=O)N[C@H](C(=O)N1CCC[C@H]1c1ncc(-c2ccc3c(c2)OC(c2nnc(-c4ccccc4)o2)n2c-3cc3cc(-c4cnc([C@@H]5CCCN5C(=O)[C@@H](NC(=O)OC)C5CCOCC5)[nH]4)ccc32)[nH]1)C1CCOCC1 (mixture of isomers) [Compound 38] . 0.223

---

Test system: HCV replicon 1A
Experiment Description: Cell-based HCV replicon assay (Replicon Assay A), replicon 1A
Set-up: species or system Hepatitis C virus (HCV)
Experimental Context: Hepatitis C virus, 72 h, replicon RNA by real time PCR, cells harvested on day 3
# label = true (1) if EC50 < 0.02 nM else false (0)

Record excerpt, results attached:
COC(=O)N[C@H](C(=O)N1CCC[C@H]1c1ncc(-c2cc(F)c3c(c2)OC(c2cc(C4CC4)no2)n2c-3cc3cc(-c4cnc([C@@H]5CCCN5C(=O)[C@@H](NC(=O)OC)C(C)C)[nH]4)ccc32)[nH]1)C(C)C (single isomer, unassigned) :: true (1)
COC(=O)N[C@H](C(=O)N1CCC[C@H]1c1ncc(-c2cc(F)c3c(c2)OC(c2cnns2)n2c-3cc3cc(-c4cnc([C@@H]5CCCN5C(=O)[C@@H](NC(=O)OC)C(C)C)[nH]4)ccc32)[nH]1)C(C)C (single isomer, unassigned) :: true (1)
COC(=O)N[C@H](C(=O)N1CCC[C@H]1c1ncc(-c2ccc3c(c2)OC(c2ccc(C)o2)n2c-3cc3cc(-c4cnc([C@@H]5CCCN5C(=O)[C@@H](NC(=O)OC)C(C)C)[nH]4)ccc32)[nH]1)C(C)C (some centres unmarked) :: false (0)
COC(=O)N[C@H](C(=O)N1CCC[C@H]1c1ncc(-c2cc(F)c3c(c2)OC(c2nc4ccccc4o2)n2c-3cc3cc(-c4cnc([C@@H]5CCCN5C(=O)[C@@H](NC(=O)OC)C(C)C)[nH]4)ccc32)[nH]1)C(C)C (single isomer, unassigned) :: true (1)
COC(=O)N[C@H](C(=O)N1CCC[C@H]1c1ncc(-c2cc(F)c3c(c2)OC(c2nc(C(C)C)ns2)n2c-3cc3cc(-c4cnc([C@@H]5CCCN5C(=O)[C@@H](NC(=O)OC)C(C)C)[nH]4)ccc32)[nH]1)C(C)C (single isomer, unassigned) :: true (1)

Does the reported EC50 of the following compound sit strictly below 0.02 nM? COC(=O)N[C@H](C(=O)N1CCC[C@H]1c1ncc(-c2ccc3c(c2)OC(c2ccc(C)o2)n2c-3cc3cc(-c4cnc([C@@H]5C[C@@H](F)CN5C(=O)[C@@H](NC(=O)OC)C5CCOCC5)[nH]4)ccc32)[nH]1)C(C)C (some centres unmarked) false (0)

Hi there! Is EC50 for COC(=O)N[C@H](C(=O)N1CCC[C@H]1c1ncc(-c2cc(F)c3c(c2)OC(c2cn4ccccc4n2)n2c-3cc3cc(-c4cnc([C@@H]5CCCN5C(=O)[C@@H](NC(=O)OC)C(C)C)[nH]4)ccc32)[nH]1)C(C)C (some centres unmarked) below 0.02 nM, do you know? true (1)
